The reported measurements were obtained from ChEMBL document CHEMBL4837249.

test: AUC (0 to t) in BALB/c mouse at 20 mg/kg, po measured up to 24 hrs by LC-MS/MS analysis; format: ADME, organism-based; parameters: route oral, dose 20 mg/kg, time <=24; conditions: in vivo
endpoint: AUC(0-t) at 24 h

Would you kindly share the measured AUC(0-t) at 24 h for Cc1ccc(C(=O)Nc2cc(C(F)(F)F)cc(C(F)(F)F)c2)cc1C#Cc1cc(-c2cnn(C)c2)cnc1N ?
21300 ng·h/mL

----------
biological target: Cytoplasmic tyrosine-protein kinase BMX (Homo sapiens); assay: Inhibition of human full length recombinant Bmx by radiometric scintillation counting analysis
Sequence (P51813 whole entry): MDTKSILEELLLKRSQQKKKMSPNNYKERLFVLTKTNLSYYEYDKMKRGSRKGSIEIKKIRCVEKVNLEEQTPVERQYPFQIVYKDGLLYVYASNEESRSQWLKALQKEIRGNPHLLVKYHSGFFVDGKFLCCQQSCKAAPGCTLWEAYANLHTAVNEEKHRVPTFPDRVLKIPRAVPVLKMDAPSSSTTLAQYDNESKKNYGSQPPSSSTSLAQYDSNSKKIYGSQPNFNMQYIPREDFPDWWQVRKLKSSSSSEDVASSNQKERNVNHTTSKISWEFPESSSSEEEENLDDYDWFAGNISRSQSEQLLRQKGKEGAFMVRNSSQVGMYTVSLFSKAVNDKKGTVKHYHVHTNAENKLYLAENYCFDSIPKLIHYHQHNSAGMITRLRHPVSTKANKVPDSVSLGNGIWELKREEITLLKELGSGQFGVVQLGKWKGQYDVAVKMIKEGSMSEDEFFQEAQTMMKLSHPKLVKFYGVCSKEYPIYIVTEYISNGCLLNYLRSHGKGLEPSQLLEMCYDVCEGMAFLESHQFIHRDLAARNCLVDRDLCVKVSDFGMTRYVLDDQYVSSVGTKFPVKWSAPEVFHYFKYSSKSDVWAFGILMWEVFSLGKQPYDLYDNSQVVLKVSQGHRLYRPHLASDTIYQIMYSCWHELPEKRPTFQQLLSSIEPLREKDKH
endpoint: pIC50
Expect pIC50 as a plain number equal to -log10 of the molar concentration.

Would you kindly share the measured pIC50 for Cc1ccc(C(=O)Nc2cc(C(F)(F)F)cc(C(F)(F)F)c2)cc1C#Cc1cc(-c2cnn(C)c2)cnc1N ?
6.90
